- test-summary: activity coefficient (dimensionless); of the first substance listed, at infinite dilution; xn = mol fraction of the nth substance listed
- experimental-conditions: 348.15 K; 101.33 kPa; Liquid; Chromatography; x1 = 0
Exercise: for every item that follows, state its recorded activity coefficient.
I only need the number, thanks.

Exercise: Report activity coefficient for CCCCCCCC [octane] + CCCCCCCCCCCCn1cc[n+](C)c1.O=S(=O)([N-]S(=O)(=O)C(F)(F)F)C(F)(F)F
Key: 4.32

Exercise: Report activity coefficient for CCC(C)(C)OC [2-methoxy-2-methylbutane] + CCCCCCCCCCCCn1cc[n+](C)c1.O=S(=O)([N-]S(=O)(=O)C(F)(F)F)C(F)(F)F
Key: 1.29

Exercise: Report activity coefficient for CCCCCCCCCC [decane] + CCCCCCCCCCCCn1cc[n+](C)c1.O=S(=O)([N-]S(=O)(=O)C(F)(F)F)C(F)(F)F
Key: 6

Exercise: Report activity coefficient for CCO [ethanol] + CCCCCCCCCCCCn1cc[n+](C)c1.O=S(=O)([N-]S(=O)(=O)C(F)(F)F)C(F)(F)F
Key: 1.17

Exercise: Report activity coefficient for C1CCCC1 [cyclopentane] + CCCCCCCCCCCCn1cc[n+](C)c1.O=S(=O)([N-]S(=O)(=O)C(F)(F)F)C(F)(F)F
Key: 1.82

Exercise: Report activity coefficient for CCCC(C)=O [pentan-2-one] + CCCCCCCCCCCCn1cc[n+](C)c1.O=S(=O)([N-]S(=O)(=O)C(F)(F)F)C(F)(F)F
Key: 0.492

Exercise: Report activity coefficient for Cc1ccccc1C [1,2-dimethylbenzene] + CCCCCCCCCCCCn1cc[n+](C)c1.O=S(=O)([N-]S(=O)(=O)C(F)(F)F)C(F)(F)F
Key: 0.93
